- target_entity: Potassium voltage-gated channel subfamily KQT member 2 (Rattus norvegicus) (UniProt O88943)
- Sequence (O88943 whole entry, looked up): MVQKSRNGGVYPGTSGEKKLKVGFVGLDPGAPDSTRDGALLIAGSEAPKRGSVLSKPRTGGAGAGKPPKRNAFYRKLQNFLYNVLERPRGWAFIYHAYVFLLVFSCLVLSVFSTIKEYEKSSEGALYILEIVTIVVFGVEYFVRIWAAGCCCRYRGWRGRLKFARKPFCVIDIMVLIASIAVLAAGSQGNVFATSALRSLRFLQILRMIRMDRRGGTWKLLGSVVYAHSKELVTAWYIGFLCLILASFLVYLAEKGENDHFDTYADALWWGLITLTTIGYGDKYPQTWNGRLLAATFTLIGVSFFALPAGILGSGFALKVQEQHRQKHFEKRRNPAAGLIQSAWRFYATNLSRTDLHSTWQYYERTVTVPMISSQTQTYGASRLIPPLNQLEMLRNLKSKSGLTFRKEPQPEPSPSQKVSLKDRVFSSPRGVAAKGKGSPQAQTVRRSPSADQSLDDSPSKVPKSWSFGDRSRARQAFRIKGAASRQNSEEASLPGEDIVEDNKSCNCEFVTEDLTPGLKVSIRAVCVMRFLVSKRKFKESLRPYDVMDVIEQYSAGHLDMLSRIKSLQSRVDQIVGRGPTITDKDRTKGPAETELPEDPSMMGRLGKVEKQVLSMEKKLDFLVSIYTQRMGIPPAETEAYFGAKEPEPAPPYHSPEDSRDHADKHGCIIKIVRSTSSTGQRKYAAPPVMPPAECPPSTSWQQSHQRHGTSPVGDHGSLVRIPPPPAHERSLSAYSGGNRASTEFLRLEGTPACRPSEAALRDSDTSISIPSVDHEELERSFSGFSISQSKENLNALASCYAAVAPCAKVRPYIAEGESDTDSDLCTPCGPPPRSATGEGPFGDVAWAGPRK
- assay_text: rat KCNQ2 potassium channel inhibitors, primary screen, cell-based, CHO-K1, FluxOR thallium flux, B-score (AID 2156)
- details: 20 min, at 10 µM; hits give low values
The whole screen tested about 310,000 compounds, of which about 3,400 (1.1%) were called active. For the sample, actives were picked, then their nearest neighbours and some compounds at random.
One threshold, -0.05, splits the recorded B-score values: lower ones are Met, equal or higher ones are Not met.

>>> answer_label("O=C(CN1CCN(c2ccc(Cl)cc2)CC1)NCc1cccs1")
"Met"
>>> answer_label("Cc1ccc(CNC(=O)CN2CCN(Cc3ccc(Cl)cc3)C2=O)cc1")
"Met"
>>> answer_label("Fc1ccc2[nH]c3c(N4CCSCC4)ncnc3c2c1")
"Met"
>>> answer_label("Cc1c(CN2CC[C@@H](N3CCN(c4ccccn4)CC3)[C@H](O)C2)[nH]c2ccc(F)cc12")
"Not met"
>>> answer_label("CC(C)OCCCNc1ncnc2c1[nH]c1ccc(F)cc12")
"Met"

---

- target_entity: Potassium voltage-gated channel subfamily KQT member 2 (Rattus norvegicus)
- assay_text: rat KCNQ2 potassium channel inhibitors, primary screen, cell-based, CHO-K1, FluxOR thallium flux, B-score (AID 2156)
- details: 20 min, at 10 µM
About 3,400 (1.1%) of roughly 310,000 compounds were called active.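 The calls were made as follows: active = fluorescence ratio B-score at most minus 3 library SDs, with starting brightness B-score within 2 library SDs (cut at about -5.5 in these data); inactive = the rest, inconclusive results apart.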 This is one part of a sample in which actives are shown more often than they occur. Peptide text beside a SMILES is read from it. * marks the point of attachment. Bz = O=C(c1ccccc1)*
Outcome codes: true (1) = active, false (0) = inactive

>>> answer_label("CCOC(=O)c1c(NC(=O)CSc2cn(CC)c3ccccc23)sc2c1CCC2")
"true (1)"
>>> answer_label("Cc1ccc(S(=O)(=O)CC(=O)NC(C)c2ccccc2)cc1 (configuration not stated)")
"false (0)"
>>> answer_label("CCCc1cc(=O)[nH]c2nnc(SCC(=O)Nc3nnc(SCC)s3)n12")
"false (0)"
>>> answer_label("CC(Sc1nn(-c2ccc(Cl)cc2)c(=S)s1)C(=O)NCC1CCCO1 (configuration not stated)")
"false (0)"
>>> answer_label("COc1ccc(N2CCN(S(=O)(=O)c3cc4c5c(c3)C(C)C(=O)N5CCC4)CC2)cc1 (configuration not stated)")
"false (0)"
>>> answer_label("CC(C)CN(C(=O)COC(=O)c1ccc2ccccc2c1)c1c(N)n(Cc2ccccc2)c(=O)[nH]c1=O")
"false (0)"
>>> answer_label("Cc1ccc(NS(=O)(=O)c2ccc(C(=O)NCCCN3CCOCC3)cc2)cc1")
"false (0)"
>>> answer_label("Cc1ccccc1NC(=O)CNc1ccccc1N1CCCCC1")
"true (1)"
>>> answer_label("Cc1ccc(C(C)C)cc1OCC(=O)Nc1ccccc1N1CCCC1")
"true (1)"
>>> answer_label("Cc1cc(C)c(NC(=O)C[N+](C)(C)CC(O)COc2cccc3ccccc23)c(C)c1 (configuration not stated)")
"false (0)"
>>> answer_label("Cc1ccc(C(C)C)cc1OCCN1CCCC1")
"false (0)"
>>> answer_label("CCCCn1c(N)c(N(Cc2ccccc2OC)C(=O)COc2cc(C)ccc2Cl)c(=O)[nH]c1=O")
"false (0)"
>>> answer_label("CC(C)(C)n1nnnc1C(c1ccc(Cl)cc1)N1CCSCC1 (configuration not stated)")
"false (0)"
>>> answer_label("O=C(COC(=O)c1ncc(Cl)c(Cl)c1Cl)NCc1cccs1")
"false (0)"
>>> answer_label("NC(=O)c1ccsc1NC(=O)COC(=O)Cc1n[nH]c(=O)c2ccccc12")
"false (0)"
>>> answer_label("COc1ccc(NS(=O)(=O)c2ccc(C)c(C(=O)N(C)Cc3ccc(OC)cc3OC)c2)cc1")
"false (0)"
>>> answer_label("COC(=O)c1sccc1NC(=O)c1cc(OC)c(OC)c(OC)c1")
"false (0)"
>>> answer_label("CCCCn1c(N)c(N(CC(C)C)C(=O)c2cnc(C)cn2)c(=O)[nH]c1=O")
"false (0)"
>>> answer_label("Cc1ccc(S(=O)(=O)NNC(=S)NC(C)(C)C)cc1")
"false (0)"
>>> answer_label("CCOC(=O)c1c(NC(=O)Cn2nc(C(F)(F)F)cc2C)sc2c1CCC2")
"false (0)"
>>> answer_label("O=C(NC(Cc1ccccc1)C(=O)N1CCCC1C(=O)O)c1ccccc1 (stereo not drawn) (Bz-Phe-Pro-OH; configuration not given here)")
"false (0)"
>>> answer_label("CCOC(=O)c1c(NC(=O)C2(C)Cc3ccccc3C(=O)O2)sc2c1CCCC2 (configuration not stated)")
"true (1)"
>>> answer_label("O=C(c1ccc(F)c(S(=O)(=O)N2CCOCC2)c1)N(CCc1ccccc1)Cc1ccccc1")
"false (0)"
>>> answer_label("Cc1ccc(SCC(=O)Nc2ccc3c(c2)OCCO3)cc1")
"false (0)"
>>> answer_label("Cc1ccccc1NC(=O)Nc1ccccc1N1CCCCC1")
"false (0)"
>>> answer_label("CCC(=O)N1CCN(c2ccccc2NC(=O)COc2cccc(C)c2C)CC1")
"false (0)"
>>> answer_label("Cc1ccc(C(=O)CSc2ccccc2C(=O)O)cc1")
"false (0)"
>>> answer_label("COc1cc(C(O)c2nc3ccccc3n2C)cc(OC)c1OC (configuration not stated)")
"false (0)"
>>> answer_label("O=C(N/N=C/c1cc(Br)c(O)c([N+](=O)[O-])c1)C(O)(c1ccccc1)c1ccccc1")
"false (0)"
>>> answer_label("CCC(C)n1c(-c2cc(OC)c(OC)c(OC)c2)nc2nc3ccccc3nc21 (configuration not stated)")
"true (1)"
>>> answer_label("CN(Cc1ccccc1F)C(=O)C(Cc1ccccc1)NC(=O)c1ccccc1 (configuration not stated)")
"true (1)"
>>> answer_label("CCOC(=O)c1c(NC(=O)CCC(=O)NCc2ccco2)sc2c1CCCC2")
"false (0)"
>>> answer_label("Cc1cccc(N2CCN(C(c3ccc(N(C)C)cc3)c3nnnn3C(C)(C)C)CC2)c1C (configuration not stated)")
"true (1)"
>>> answer_label("COc1ccc(-c2nnc(SCC(=O)Nc3cccnc3Cl)n2C)cc1")
"false (0)"
>>> answer_label("COc1cccc(NC(=O)CSc2nccn(-c3ccc4c(c3)OCCO4)c2=O)c1")
"false (0)"
>>> answer_label("Cc1cc(Cl)c2oc(C(=O)N(C)C(C)c3ccccn3)c(C)c2c1 (configuration not stated)")
"true (1)"
>>> answer_label("N#Cc1c(NC(=O)CCCN2C(=O)c3ccccc3C2=O)oc(-c2ccccc2)c1-c1ccccc1")
"false (0)"
>>> answer_label("O=C(NN1CCOCC1)c1cccc(F)c1")
"false (0)"
>>> answer_label("COc1ccc(NS(=O)(=O)c2ccc(C)c(C(=O)NNC(=O)c3csc(N4CCOCC4)n3)c2)cc1")
"false (0)"
>>> answer_label("Cc1cc(Cl)c2oc(C(=O)NC(C)c3ccncn3)c(C)c2c1 (configuration not stated)")
"false (0)"
>>> answer_label("CN(CC(=O)Nc1ccccc1Cl)C(=O)c1ccccc1SCC(=O)N1CCCC1")
"false (0)"
>>> answer_label("COc1ccc(F)cc1S(=O)(=O)NCC(c1ccc2c(c1)OCO2)N1CCN(C)CC1 (configuration not stated)")
"false (0)"

Where these numbers come from: PubChem BioAssay AID2156
